system: MS2 coat protein; assay: apparent KD of MS2 coat protein; designed switch direction (-1 OFF switch, 1 ON switch): -1; higher = weaker reporter binding; conditions: input ligand: FMN 200 uM
Can you tell me apparent KD of MS2 coat protein for the items I'm about to list?
Report the figure in nM without appending any unit label.

Given the entry GUUAACGUAGGAUAUUAGUACAUGCACAUGAGGAUCACCCAUGUUUAGUGGGUCUAGGAAUAAGAAGGGCGAUGAA [EX5 #22] (Eterna round: R97, puzzle: Exclusion 5) , report its measured apparent KD of MS2 coat protein.
472

For CAUUAUUAUCGAGGAUAUCCUAUUGUAAUUCUGGGAGAAGGCGGACUCAACAUGAGGAUCACCCAUGUAAGACGGGUACUAGAU [Ex NG1 #21] (Eterna round: R96, puzzle: Exclusion NG 1) , what is its reported apparent KD of MS2 coat protein?
69.5

If you can, please state the reported apparent KD of MS2 coat protein value of UUCCUACUUGAGGAUCACCCAAGUCAGGAUAUCCAUAACCGACACUCUUUUCGGAGCGGGAGAAGGGACUUGGC [Arbedi] (Eterna round: R97, puzzle: Exclusion 1) .
119

Given AUGAACAAUGUAGGAUAUGCGUGGCGAAGCUAUGCAGAAGGACAUGAGGAUCACCCAUGUUCAAGCGUCUGCGUACAGAUGCUA [JL eng1 1.35 mod 7] (Eterna round: R96, puzzle: Exclusion NG 1) , state its recorded apparent KD of MS2 coat protein.
26.9

What does the record list as apparent KD of MS2 coat protein for GGACCUGGAGGAUAUAGAGCACUGAACAUGAGGAUCACCCAUGUGACCGGUGUAGUGCACCUAGAAGGCCGCGGCA [Eternabot (L1) Solution 40] (Eterna round: R97, puzzle: Exclusion 5) ?
129

Entry UGCUGACGAGGAUAUACAUGAGGAUCACCCAUGUUGGUUCAGCGACUUCGGUCGCAAUGUAGAAGGCGUCAGCA [E3/9-A5] (Eterna round: R97, puzzle: Exclusion 3) : reported apparent KD of MS2 coat protein = ?
230

Param item = GCCUGCUGGCGAGGAUAUCCUGUGCGGUUCCGGCUCGUGUCUGUUACAUGAGGAUCACCCAUGUGGGAGAAGGUGUCUGUGGCC [Design 99] (Eterna round: R96, puzzle: Exclusion NG 2) ; retrieve measured apparent KD of MS2 coat protein.
17.7

Look up apparent KD of MS2 coat protein for this sequence: AGCUGUGGCCGAGGAUAUCUAAACCUUCAAACCGAGGUAUACUCGGACAUGAGGAUCACCCAUGUAGAGAAGGCGGUCUCAGCA [Eli eng2 - 035] (Eterna round: R96, puzzle: Exclusion NG 2)
34.7

apparent KD of MS2 coat protein for GCAGCUGCUCUAGGAUAUAUUUUAGCACAUGAGGAUCACCCAUGUGGGACCACAACAGCGCAAGAAUAGAAGGAGACAGCAGUA [Eternabot solution 32] (Eterna round: R96, puzzle: Exclusion NG 2) ?
506

Which apparent KD of MS2 coat protein reading was recorded for the sequence AAAUAGCUAGAGGAUAUUGGAUAGGAUUUAGUACGAGAAGGUUAGACAUGAGGAUCACCCAUGUUGUGUUGGGA [EX6 #16] (Eterna round: R97, puzzle: Exclusion 6) ?
49.2
